MEASUREMENT_NOTES: Distribution in feces of healthy rat 24 hr after iv injection into the femoral vein
Format: ADME, organism-based
PARTICULARS: faeces, read-out: Organ distribution
READOUT_LABEL: dose excreted at 24 h (%)

MOLECULE_SMILES | READOUT_LABEL | RESULT_VALUE
N=C(N)NCCC[C@H](NC(=O)[C@@H]1C[C@@H]2CCCC[C@@H]2N1C(=O)[C@H]1Cc2ccccc2CN1C(=O)[C@H](CO)NC(=O)[C@H](Cc1cccs1)NC(=O)CNC(=O)[C@@H]1C[C@@H](O)CN1C(=O)[C@@H]1CCCN1C(=O)[C@H](CCCNC(=N)N)NC(=O)[C@@H](CCCNC(=N)N)NC(=O)c1ccc(CN2CCCNCCNCCCNCC2)cc1)C(=O)O | dose excreted at 24 h | 8.4

Attribution: ChEMBL document CHEMBL1128686
